Cited source for all entries: ChEMBL document CHEMBL5107950

# Test system: Mycobacterium tuberculosis
# experiment-notes: Potentiation of kanamycin-induced antibacterial activity against Mycobacterium tuberculosis H37Rv mc2 6230 with Eis C-14T mutation assessed as kanamycin MIC incubated for 1 week by resazurin staining based microdilution method
# Type: functional
# condition-info: time 1 weeks
property: MIC

O=C(CCCN1CCC(O)(c2ccccc2)CC1)c1ccc(F)cc1 | <=1.25 ug ml-1
N=C(N)NCCCC(=O)c1ccc(F)cc1 | <=1.25 ug ml-1
O=C(CCCN1CCCCC1)c1ccc(F)cc1 | <=1.25 ug ml-1
O=C(CCCN1CCC(O)CC1)c1ccc(F)cc1 | <=1.25 ug ml-1
